test_target: Cytochrome P450 1A2 (Homo sapiens)
assay_notes: Cytochrome P450 Family 1 Subfamily A Member 2 (CYP1A2) small molecule antagonists: luciferase reporter qHTS assay (AID 1671199); also: nearly all actives have a fitted effect of over 50% in size
study_conditions: P450-Glo CYP1A2 enzyme, luciferin luminescence, 1 h; series mostly up to 115 µM
Records with an inconclusive call do not appear. Calls of active or inactive are those of the source. Calls follow the shape of the dose curve; as a rule, active = well fitted inhibition curve with a large enough effect in the repeat runs; inconclusive = weak or mixed curves; inactive = no such curve, though single readings can be large or run the other way.
# valid calls are active, inactive; nothing else

Example cases with answers are listed next.
Cc1c[nH]c2ccccc12	active
CCCCCc1ccco1	active
CCN(CC)CCNC(=O)c1cc(Cl)c(N)cc1OC	inactive
CCOC(=O)N1CCC(Nc2ccc(Cl)cc2N)CC1	inactive
Cc1ccc(Cl)cc1N	active
CCCCCCCCCCCSCC(=O)O	inactive
C/C(C=O)=C\c1ccccc1	inactive
CC(C)COC(=O)c1ccc(O)cc1	active

[Q] So what was the verdict on COC(=O)Nc1nc2ccc(C(=O)C3CC3)cc2[nH]1 in this test?
[A] active

[Q] How about this compound: CCC(CO)(CO)CO
[A] inactive

[Q] How about this compound: CC12CC3CC(C)(C1)CC(N)(C3)C2
[A] inactive

[Q] How about this compound: Cc1ccc2c(c1)CCCN2
[A] active

[Q] How about this compound: O=C1NC(=O)c2cccc3cccc1c23
[A] active

[Q] How about this compound: CC(=O)OCC1=C(C(=O)O)N2C(=O)[C@@H](NC(=O)CSc3ccncc3)[C@H]2SC1
[A] inactive

[Q] How about this compound: COc1ccc(N)c([N+](=O)[O-])c1
[A] active

[Q] How about this compound: O=C(C(=O)c1ccco1)c1ccco1
[A] active

[Q] How about this compound: CCCCCCCCCCCCCC(=O)OCC(O)CO (stereo not drawn)
[A] active

[Q] How about this compound: CC(C)Cc1ccc(CC(=O)O)cc1
[A] inactive

[Q] How about this compound: O=C(O)c1ccc(O)cc1O
[A] inactive

[Q] How about this compound: Nc1ccc(N=Nc2ccc(N)cc2)cc1
[A] active

[Q] How about this compound: c1ccc(CNc2ncnc3c2ncn3C2CCCCO2)cc1 (stereo not drawn)
[A] active

[Q] How about this compound: CCc1ccc(C)cc1
[A] inactive

[Q] How about this compound: COc1cc(S(=O)(=O)Nc2ccccc2)c(OC)cc1N
[A] active

---

test_target: Nuclear receptor subfamily 1 group I member 2 (Rattus norvegicus)
assay_notes: Rat pregnane X receptor (rPXR) activation by small molecules, qHTS assay (AID 1346983); also: % is scaled to controls: 0 for no effect and ±100 for the full control effect; nearly all actives have a fitted effect of over 20% in size
study_conditions: rPXR luciferase reporter cells, One-Glo luminescence, 24 h; stronger effect = higher value
Inconclusive results are not listed.
Reported max activation by item:
Record the value in %, omitting the unit from your answer.

Illustrative cases are given below, each with its answer.
C=CC(=O)O	-1.96
CC(C(=O)O)c1ccc(C(=O)c2cccs2)cc1 (stereo not drawn)	-2.97
C[C@@H]1[C@H](O)[C@@H](C)/C=C/C=C\C=C\C=C\C=C\C=C\C=C\[C@H](O[C@@H]2O[C@H](C)[C@@H](O)[C@H](N)[C@@H]2O)C[C@@H]2O[C@](O)(C[C@@H](O)C[C@@H](O)[C@H](O)CC[C@@H](O)C[C@@H](O)CC(=O)O[C@H]1C)C[C@H](O)[C@H]2C(=O)O (stereo in doubt)	1.92
COc1ccc(CCN(C)CCCN2CCc3cc(OC)c(OC)cc3CC2=O)cc1OC	3.44
Cc1ccc2nc(N)[nH]c(=O)c2c1Sc1ccncc1	-1.84

Okay, now this compound:
[Q] Need max activation of O=C(O)CCC(=O)c1ccc(-c2ccccc2)cc1 , thanks.
[A] 11.9

Provenance of the data: PubChem BioAssay (Tox21)
